assay: Tissue distribution after single oral PU-48 SNEDDS; assay type: in vivo; settings: male, testicle; 6 h, rat, oral PU-48 SNEDDS 12 mg/kg; read-out: Concentration of PU-48 in testicle

{"molecule": "COC(=O)c1sc2nc3ccc(OC)cc3cc2c1N", "concentration at 6 h": "9.5 ng/g"}

###

experiment: Plasma pharmacokinetics after single oral PU-48 SNEDDS; type: in vivo, rat; conditions: plasma; 6 h, rat, oral PU-48 SNEDDS 12 mg/kg

{"molecule": "COC(=O)c1sc2nc3ccc(OC)cc3cc2c1N", "concentration at 6 h": "2.1 ng/mL"}

###

assay: Plasma pharmacokinetics after single oral PU-48 SNEDDS; format: in vivo, rat; details: plasma; 0.25 h, rat, oral PU-48 SNEDDS 3 mg/kg
measured property: concentration at 0.25 h (ng/mL)

{"molecule": "COC(=O)c1sc2nc3ccc(OC)cc3cc2c1N", "scale unit": "ng/mL", "observed": 11.9}

###

assay: Plasma pharmacokinetics after single oral PU-48 SNEDDS; format: in vivo, rat; conditions: rat, plasma, po, 12 mg/kg, rat plasma, oral PU-48 SNEDDS 12 mg/kg, n=6; read-out: Tmax
measured property: Tmax (min)

{"molecule": "COC(=O)c1sc2nc3ccc(OC)cc3cc2c1N", "measured property": "Tmax", "scale unit": "min", "observed": 30}

###

experiment: Tissue distribution after single oral PU-48 SNEDDS; format: in vivo; details: stomach; 6 h, rat, oral PU-48 SNEDDS 12 mg/kg; read-out: Concentration of PU-48 in stomach

{"compound": "COC(=O)c1sc2nc3ccc(OC)cc3cc2c1N [PU-48]", "concentration at 6 h": "509 ng/g"}

###

test: Plasma pharmacokinetics after single oral PU-48 SNEDDS; type: in vivo, rat; settings: plasma; 48 h, rat, oral PU-48 SNEDDS 12 mg/kg

{"molecule": "COC(=O)c1sc2nc3ccc(OC)cc3cc2c1N", "concentration at 48 h (ng/mL)": 0.2}

###

experiment: Tissue distribution after single oral PU-48 SNEDDS; format: in vivo; conditions: colon; 24 h, rat, oral PU-48 SNEDDS 12 mg/kg; read-out: Concentration of PU-48 in colon
measured property: concentration at 24 h (ng/g)

{"molecule": "COC(=O)c1sc2nc3ccc(OC)cc3cc2c1N", "measured property": "concentration at 24 h", "observed": 14.1}

###

experiment: Tissue distribution after single oral PU-48 SNEDDS; type: in vivo; conditions: bladder; 1 h, rat, oral PU-48 SNEDDS 12 mg/kg; read-out: Concentration of PU-48 in bladder

{"molecule": "COC(=O)c1sc2nc3ccc(OC)cc3cc2c1N", "scale unit": "ng/g", "concentration at 1 h": 368}

###

assay: Plasma pharmacokinetics after single oral PU-48 SNEDDS; assay type: in vivo, rat; conditions: plasma; 8 h, rat, oral PU-48 SNEDDS 6 mg/kg

{"molecule": "COC(=O)c1sc2nc3ccc(OC)cc3cc2c1N", "concentration at 8 h (ng/mL)": 0.6}

###

Assay: Plasma pharmacokinetics after single oral PU-48 SNEDDS
Format: in vivo, rat
Settings: plasma; 24 h, rat, oral PU-48 SNEDDS 12 mg/kg
Description: The method for quantification PU-48 in rat samples (plasma, thirteen tissues, urine and bile) has been developed and validated in our preliminary experiment. Briefly, PU-48 was quantitative analyzed by the liquid chromatography-electrospray ionization source-triple quadrupole tandem mass spectrometer (LC-MS/MS) system, which consisted of the Shimazdu LC-20AD pumpers (Shimadzu, Kyoto, Japan), a 20 μL loop and a SPD-M20A PDA detector. […]

{"molecule": "COC(=O)c1sc2nc3ccc(OC)cc3cc2c1N", "concentration at 24 h (ng/mL)": 0.1}
